Every entry's value here was drawn from ChEMBL document CHEMBL1857833.

Test system: Trypanosoma brucei
Assay: DNDI: Inhibition of Human African Trypanosomiasis, SBRI 427, in vitro at 2 ug.mL-1
Assay type: functional
Screen size: about 4,400 compounds; about 390 (8.9%) showed an effect of 50% or more. Only a selection was taken, and strong results are over-represented in it overall.
Would you mind labelling by % inhibition? At or over 10% is condition met, under is condition not met.

Solved entries:
• Cc1ccc(N(C)Cc2coc(-c3cccc4ccccc34)n2)cc1 = condition not met
• CCN(CC)c1cccc(Oc2ncccc2/C(=N/O)NC2CC(C)CC(C)(C)C2)c1 (stereo not given) = condition not met

Record CC(C)COc1ncccc1/C(=N/O)N1C(C)CCC1C (stereo not given) ; criterion: % inhibition no lower than 10%. Met? condition not met

Record `COc1ccc(Oc2ncccc2/C(=N/O)n2ccnc2C)cc1` ; criterion: % inhibition no lower than 10%. Met? condition not met
